Target: recombinant mouse CD38 Protein (Mus musculus, UniProt P56528)
Construct: purchased R&D System
Assay: Fluorescence-based NAD+ hydrolase activity assay with mouse recombinant CD38 protein (Assay 5)
Format: biochemical
Details: read-out: Assay 5 Arithmetic mean IC50
Measured IC50 values are reported for all entries that follow.
readout: IC50

| smi | readout | test-value |
| --- | --- | --- |
| Cc1cc(C(=O)Nc2ccnc(C(N)=O)c2)nc(-n2ccnc2)c1 | IC50 | < 1 nM |
| Cn1cncc1-c1cccc(C(=O)Nc2ccc(C(F)(F)F)nc2)n1 | IC50 | 1 to 50 nM |
| Cc1cc(C(=O)Nc2cccnc2)nc(-n2ccnc2)n1 | IC50 | < 1 nM |
| COc1cc(C(=O)Nc2cccnc2)nc(-n2ccnc2)c1 | IC50 | 1 to 50 nM |
| Cc1cc(C(=O)Nc2cccnc2)nc(-n2ccnc2)c1 | IC50 | < 1 nM |
| CC1(Oc2cc(C(=O)Nc3ccnc(C(F)(F)F)c3)nc(-n3ccnc3)c2)COC1 | IC50 | < 1 nM |
| Cc1cc(NC(=O)c2cccc(-n3ccnc3)n2)ccn1 | IC50 | 1 to 50 nM |
| COCCOc1cc(C(=O)Nc2ccnc(C(F)(F)F)c2)nc(-n2ccnc2)n1 | IC50 | < 1 nM |
| CC(=O)Nc1ccc(NC(=O)c2cccc(-n3ccnc3)n2)cn1 | IC50 | 1 to 50 nM |
| O=C(Nc1ccnc(C(F)(F)F)c1)c1cc(OC2CC2)cc(-n2ccnc2)n1 | IC50 | 51 to 1000 nM |
| Cc1cc(C(=O)Nc2ccncc2)nc(-c2cncn2C)c1 | IC50 | 1 to 50 nM |

---

Measured IC50 values are reported for all entries that follow.
Molecular target: recombinant mouse CD38 Protein (Mus musculus, UniProt P56528)
Construct: purchased R&D System
Sequence (P56528 1-304): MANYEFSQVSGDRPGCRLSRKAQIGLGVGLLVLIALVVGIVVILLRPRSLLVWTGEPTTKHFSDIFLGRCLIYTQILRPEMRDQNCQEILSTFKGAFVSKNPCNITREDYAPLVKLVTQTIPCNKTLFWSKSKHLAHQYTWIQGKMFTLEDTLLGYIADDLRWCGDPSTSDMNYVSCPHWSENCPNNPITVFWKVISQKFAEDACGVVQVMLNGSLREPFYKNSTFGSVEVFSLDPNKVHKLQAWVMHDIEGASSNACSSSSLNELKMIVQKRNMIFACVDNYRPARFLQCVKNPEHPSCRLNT
Assay: Fluorescence-based NAD+ cyclase activity assay with mouse recombinant CD38 protein (Assay 4)
Type: biochemical
Conditions: read-out: Assay 4 Arithmetic mean IC50

| compound | IC50 |
| --- | --- |
| CC1(Oc2cc(C(=O)Nc3ccnc(C(F)(F)F)c3)nc(-n3ccnc3)n2)COC1 [Compound 41] | 0.051 to 1 µM |
| COCCOc1cc(C(=O)Nc2ccnc(C(F)(F)F)c2)nc(-n2ccnc2)n1 [Compound 39] | 0.001 to 0.05 µM |
| COc1cc(C(=O)Nc2ccnc(C(F)(F)F)c2)nc(-n2ccnc2)c1 [Compound 35] | 0.001 to 0.05 µM |
| O=C(Nc1ccnc(C(F)(F)F)c1)c1cc(OC2CC2)nc(-n2ccnc2)n1 [Compound 40] | 0.051 to 1 µM |
| COc1cc(C(=O)Nc2ccnc(C(F)(F)F)c2)nc(-n2ccnc2)n1 [Compound 37] | 0.051 to 1 µM |
| CN(C)CCOc1cc(C(=O)Nc2ccnc(C(F)(F)F)c2)nc(-n2ccnc2)c1 [Compound 33] | 0.001 to 0.05 µM |
| CCOc1cc(C(=O)Nc2ccnc(C(F)(F)F)c2)nc(-n2ccnc2)n1 [Compound 38] | 0.051 to 1 µM |
| O=C(Nc1ccnc(C(F)(F)F)c1)c1cc(C2CC2)nc(-n2ccnc2)n1 [Compound 51] | 0.001 to 0.05 µM |
| CC1(Oc2cc(C(=O)Nc3ccnc(C(F)(F)F)c3)nc(-n3ccnc3)c2)COC1 [Compound 34] | 0.051 to 1 µM |

---

Biological target: CD38 NAD+ hydrolase activity in NH7-dCas9 cells (Jurkat clone) (Homo sapiens, UniProt P28907)
Construct: The assay utilized CD38 expressing NH7-dCas9 cells (Jurkat clone)
Sequence (P28907 whole entry): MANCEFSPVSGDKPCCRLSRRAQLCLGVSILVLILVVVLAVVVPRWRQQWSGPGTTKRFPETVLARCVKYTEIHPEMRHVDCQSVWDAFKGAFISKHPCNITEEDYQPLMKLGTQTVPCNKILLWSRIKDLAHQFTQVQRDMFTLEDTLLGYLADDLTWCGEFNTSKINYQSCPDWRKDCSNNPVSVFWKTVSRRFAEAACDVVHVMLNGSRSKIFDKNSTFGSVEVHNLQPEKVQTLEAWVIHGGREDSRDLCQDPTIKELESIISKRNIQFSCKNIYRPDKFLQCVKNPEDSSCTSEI
Assay: Fluorescence-based NAD+ hydrolase activity assay with human T cell line NH7-dCas9 cells-Jurkat clone (Assay 1)
Details: read-out: Assay 1 Arithmetic mean IC50
Method: For the modified assay, the performance validation criteria of the assay as a High Throughput Screening (HTS): Z-factor within the plate was greater than 0.89 (optimal HTS z-factor >0.5) and the Intra-plate, inter-plate and day to day variability (CV) was less than 20%. NAD+ hydrolase activity of a human T cell line treated with test compounds was measured using a fluorescence-based assay. […]
Measured IC50 values are reported for all entries that follow.
readout: IC50

| smi | test-value |
| --- | --- |
| O=C(Nc1ccccn1)c1cccc(-n2ccnc2)n1 | 51 to 1000 nM |
| CCOc1cc(C(=O)Nc2ccnc(C(F)(F)F)c2)nc(-n2ccnc2)n1 | < 1 nM |
| O=C(Nc1ccnc(C(F)(F)F)c1)c1cc(OCc2ccccc2)cc(-n2ccnc2)n1 | < 1 nM |
| NC(=O)c1cc(NC(=O)c2cccc(-n3ccnc3)n2)ccn1 | 1 to 50 nM |
| Cc1cc(C(=O)Nc2ccncc2)nc(-n2ccnc2)c1 | < 1 nM |
| O=C(Nc1cccnc1)c1ccnc(-n2ccnc2)n1 | < 1 nM |
| O=C(Nc1cccnc1)c1nc(-n2ccnc2)ccc1F | 1 to 50 nM |
| CNC(=O)c1cc(NC(=O)c2cc(C)cc(-n3ccnc3)n2)ccn1 | < 1 nM |
| O=C(Nc1cc(F)nc(F)c1)c1cccc(-n2ccnc2)n1 | < 1 nM |

---

Molecular target: recombinant human CD38 Protein (Homo sapiens)
Construct: purchased R&D System
Sequence (P28907 whole entry): as above
Assay: Fluorescence-based NAD+ hydrolase activity assay with human recombinant CD38 protein (Assay 3)
Type: biochemical
Conditions: read-out: Assay 3 Arithmetic mean IC50
Measured IC50 values are reported for all entries that follow.
readout: IC50

| molecule | test-value |
| --- | --- |
| O=C(Nc1ccnc(C(F)(F)F)c1)c1cc(OC2CC2)nc(-n2ccnc2)n1 [Compound 40] | 0.001 to 0.05 µM |
| O=C(Nc1ccnc(F)c1)c1cccc(-n2ccnc2)n1 [Compound 8] | 0.001 to 0.05 µM |
| Cc1cc(C(=O)Nc2cccnc2)nc(-n2ccnc2)c1 [Compound 53] | 0.001 to 0.05 µM |
| O=C(Nc1ccccn1)c1cccc(-n2ccnc2)n1 [Compound 25] | 0.051 to 1 µM |
| Cc1cc(C(=O)Nc2ccncc2)nc(-n2ccnc2)n1 [Compound 50] | < 0.001 µM |
| Nc1ccc(-n2ccnc2)nc1C(=O)Nc1ccnc(F)c1 [Compound 65] | < 0.001 µM |
| NC(=O)c1cc(NC(=O)c2cccc(-n3ccnc3)n2)ccn1 [Compound 17] | 0.001 to 0.05 µM |
| Cc1ccc(NC(=O)c2cccc(-n3ccnc3)n2)cn1 [Compound 14] | 0.001 to 0.05 µM |
| CCOc1cc(C(=O)Nc2ccnc(C(F)(F)F)c2)nc(-n2ccnc2)n1 [Compound 38] | < 0.001 µM |
| Cc1cc(C(=O)Nc2ccc(C(N)=O)nc2)nc(-n2ccnc2)c1 [Compound 54] | 0.001 to 0.05 µM |
| Cc1ccc(-n2ccnc2)nc1C(=O)Nc1cccnc1 [Compound 59] | 0.001 to 0.05 µM |
| CC(=O)Nc1ccc(NC(=O)c2cccc(-n3ccnc3)n2)cn1 [Compound 16] | 0.001 to 0.05 µM |
| Cn1ccnc1-c1cccc(C(=O)Nc2cccnc2)n1 [Compound 48] | 0.001 to 0.05 µM |
| CCOC(=O)c1cc(NC(=O)c2cccc(-n3ccnc3)n2)ccn1 [Compound 6] | 0.001 to 0.05 µM |
| COc1ccc(-n2ccnc2)nc1C(=O)Nc1cccnc1 [Compound 63] | 0.001 to 0.05 µM |
| CN(C)CCOc1cc(C(=O)Nc2ccnc(C(F)(F)F)c2)nc(-n2ccnc2)c1 [Compound 33] | < 0.001 µM |
| Cc1cncn1-c1cccc(C(=O)Nc2cccnc2)n1 [Compound 26] | 0.051 to 1 µM |
| O=C(Nc1ccnc(C(F)(F)F)c1)c1cc(OCc2ccccc2)cc(-n2ccnc2)n1 [Compound 29] | 0.001 to 0.05 µM |
| O=C(Nc1ccnc(C(F)(F)F)c1)c1cc(OCC2CCOCC2)cc(-n2ccnc2)n1 [Compound 30] | 0.001 to 0.05 µM |

---

Measured pIC50 values are reported for all entries that follow.
Molecular target: recombinant human CD38 Protein (Homo sapiens)
Construct: purchased R&D System
Assay: Fluorescence-based NAD+ hydrolase activity assay with human recombinant CD38 protein (Assay 3)
Type: biochemical
Conditions: read-out: Assay 3 Arithmetic mean IC50
Method: This protocol was modified from the following references (Muller et al. (1983); (Schultz et al. (2018); (Matalonga et al. (2017); and de Oliveira et al. (2018), supra. NAD+ hydrolase activity of the human recombinant CD38 protein treated with test compounds was measured using a fluorescence-based assay. […]
pIC50: −log10 of the molar value.
readout: pIC50

| compound | assay-target | readout | test-value |
| --- | --- | --- | --- |
| Nc1ccc(-n2ccnc2)nc1C(=O)Nc1ccncc1 [Compound 64] | recombinant human CD38 Protein (Homo sapiens) | pIC50 | 7.30 to 9.00 |
| Cc1cc(NC(=O)c2cccc(-n3ccnc3)n2)cc(C)n1 [Compound 7] | recombinant human CD38 Protein (Homo sapiens) | pIC50 | 7.30 to 9.00 |
| Cc1cc(NC(=O)c2cccc(-n3ccnc3)n2)cc(C#N)n1 [Compound 4] | recombinant human CD38 Protein (Homo sapiens) | pIC50 | > 9.00 |
| O=C(Nc1ccncn1)c1cccc(-n2ccnc2)n1 [Compound 24] | recombinant human CD38 Protein (Homo sapiens) | pIC50 | 7.30 to 9.00 |
| COc1ccc(C(=O)Nc2cccnc2)nc1-n1ccnc1 [Compound 60] | recombinant human CD38 Protein (Homo sapiens) | pIC50 | 6.00 to 7.29 |
| NC(=O)c1ccc(NC(=O)c2cccc(-n3ccnc3)n2)cn1 [Compound 3] | recombinant human CD38 Protein (Homo sapiens) | pIC50 | 7.30 to 9.00 |
| O=C(Nc1ccc(F)nc1)c1cccc(-n2ccnc2)n1 [Compound 22] | recombinant human CD38 Protein (Homo sapiens) | pIC50 | 7.30 to 9.00 |
| O=C(O)c1ccc(NC(=O)c2cccc(-n3ccnc3)n2)cn1 [Compound 21] | recombinant human CD38 Protein (Homo sapiens) | pIC50 | 7.30 to 9.00 |
| COCCNc1cc(NC(=O)c2cccc(-n3ccnc3)n2)ccn1 [Compound 10] | recombinant human CD38 Protein (Homo sapiens) | pIC50 | 7.30 to 9.00 |
| COC(=O)c1ccc(NC(=O)c2cccc(-n3ccnc3)n2)cn1 [Compound 27] | recombinant human CD38 Protein (Homo sapiens) | pIC50 | 7.30 to 9.00 |
| Cn1cncc1-c1cccc(C(=O)Nc2ccc(C(F)(F)F)nc2)n1 [Compound 43] | recombinant human CD38 Protein (Homo sapiens) | pIC50 | 7.30 to 9.00 |
| O=C(Nc1ccc(C(F)(F)F)nc1)c1cccc(-c2cncs2)n1 [Compound 46] | recombinant human CD38 Protein (Homo sapiens) | pIC50 | 7.30 to 9.00 |
| Cc1cc(C(=O)Nc2ccncc2)nc(-c2nccn2C)c1 [Compound 45] | recombinant human CD38 Protein (Homo sapiens) | pIC50 | 7.30 to 9.00 |
| CNC(=O)c1cc(NC(=O)c2cc(C)cc(-n3ccnc3)n2)ccn1 [Compound 56] | recombinant human CD38 Protein (Homo sapiens) | pIC50 | 7.30 to 9.00 |
| CCN(C(C)=O)c1ccc(NC(=O)c2cccc(-n3ccnc3)n2)cn1 [Compound 19] | recombinant human CD38 Protein (Homo sapiens) | pIC50 | 7.30 to 9.00 |
| O=C(Nc1cccnc1)c1ccnc(-n2ccnc2)n1 [Compound 69] | recombinant human CD38 Protein (Homo sapiens) | pIC50 | 7.30 to 9.00 |
| COc1cc(C(=O)Nc2ccnc(C(F)(F)F)c2)nc(-n2ccnc2)n1 [Compound 37] | recombinant human CD38 Protein (Homo sapiens) | pIC50 | > 9.00 |
| O=C(Nc1ccncc1)c1cccc(-n2ccnc2)n1 [Compound 13] | recombinant human CD38 Protein (Homo sapiens) | pIC50 | 7.30 to 9.00 |
| Cc1cc(NC(=O)c2cccc(-n3ccnc3)n2)ccn1 [Compound 11] | recombinant human CD38 Protein (Homo sapiens) | pIC50 | 7.30 to 9.00 |
| O=C(Nc1ccc(C(F)(F)F)nc1)c1cccc(-n2ccnc2)n1 [Compound 9] | recombinant human CD38 Protein (Homo sapiens) | pIC50 | 7.30 to 9.00 |
